test: Pharmacokinetic study of the GMC1 co-solvent formulation, IV bolus; type: in vivo, male Sprague Dawley rats; conditions: male, Sprague Dawley, rat, plasma, iv, 2 mg/kg, single 2 mg/kg IV bolus, three compartment model, read-out: T1/2α (distribution half-life of α-phase)
Metric: half-life (min)
One number for each entry, in min.

**Query** Could you share which half-life value was measured for COc1ccc(/C=N/NC(=O)CSc2nc3ccccc3[nH]2)cc1 [GMC1] ?
**Result** 6.6
